test: Pharmacokinetics of sirolimus in blood (LC/MS/MS, non-compartmental); assay type: in vivo, patients; details: human, whole blood, im, 1 mg, DL IM, sor 400 mg b.i.d., sir 1 mg q.d.; cycle 1 day 1, single-dose sir; geometric mean (95% CI), n=3
Quantity Measured: Cmax (ng/mL)

| Molecule | Quantity Measured | Unit Label | Experimental Result |
| --- | --- | --- | --- |
| CO[C@H]1C[C@@H]2CC[C@@H](C)[C@@](O)(O2)C(=O)C(=O)N2CCCC[C@H]2C(=O)O[C@H]([C@H](C)C[C@@H]2CC[C@@H](O)[C@H](OC)C2)CC(=O)[C@H](C)/C=C(\C)[C@@H](O)[C@@H](OC)C(=O)[C@H](C)C[C@H](C)/C=C/C=C/C=C/1C | Cmax | ng/mL | 7.99 |

====

assay: Pharmacokinetics of sirolimus in blood (LC/MS/MS, non-compartmental); format: in vivo, patients; details: human, whole blood, oral, AUC(0–12 h), DL 0, sor 200 mg b.i.d., sir 1 mg q.d.; cycle 2 day 15, continuous sor on continuous sir; geometric mean (95% CI), n=6
Quantity Measured: AUC(0-t) (ng·h/mL)

| Molecule | Experimental Result |
| --- | --- |
| CO[C@H]1C[C@@H]2CC[C@@H](C)[C@@](O)(O2)C(=O)C(=O)N2CCCC[C@H]2C(=O)O[C@H]([C@H](C)C[C@@H]2CC[C@@H](O)[C@H](OC)C2)CC(=O)[C@H](C)/C=C(\C)[C@@H](O)[C@@H](OC)C(=O)[C@H](C)C[C@H](C)/C=C/C=C/C=C/1C [sirolimus] | 57.8 |

====

experiment: Pharmacokinetics of sirolimus in blood (LC/MS/MS, non-compartmental); format: in vivo, patients; conditions: human, whole blood, oral, 2 mg, DL 1, Sor 200 mg b.i.d., sir 2 mg q.d.; cycle 1 day 1, single-dose sir; geometric mean (95% CI), n=6

| Molecule | Cmax [ng/mL] |
| --- | --- |
| CO[C@H]1C[C@@H]2CC[C@@H](C)[C@@](O)(O2)C(=O)C(=O)N2CCCC[C@H]2C(=O)O[C@H]([C@H](C)C[C@@H]2CC[C@@H](O)[C@H](OC)C2)CC(=O)[C@H](C)/C=C(\C)[C@@H](O)[C@@H](OC)C(=O)[C@H](C)C[C@H](C)/C=C/C=C/C=C/1C | 5.74 |

====

experiment: Pharmacokinetics of sirolimus in blood (LC/MS/MS, non-compartmental); assay type: in vivo, patients; details: human, whole blood, im, DL IM, sor 400 mg b.i.d., sir 1 mg q.d.; cycle 2 day 15, continuous sor on continuous sir; geometric mean (95% CI), n=2
Quantity Measured: Cmax

| Molecule | Experimental Result |
| --- | --- |
| CO[C@H]1C[C@@H]2CC[C@@H](C)[C@@](O)(O2)C(=O)C(=O)N2CCCC[C@H]2C(=O)O[C@H]([C@H](C)C[C@@H]2CC[C@@H](O)[C@H](OC)C2)CC(=O)[C@H](C)/C=C(\C)[C@@H](O)[C@@H](OC)C(=O)[C@H](C)C[C@H](C)/C=C/C=C/C=C/1C | 13.7 ng/mL |

====

assay: Pharmacokinetics of sorafenib in plasma (LC/MS/MS, non-compartmental); type: in vivo, patients; details: human, plasma, oral, DL 1, Sor 200 mg b.i.d., sir 2 mg q.d; cycle 2 day 1, continuous sir on continuous sor; geometric mean (95% CI), n=4
Quantity Measured: Cmax (ng/mL)

| Molecule | Unit Label | Experimental Result |
| --- | --- | --- |
| CNC(=O)c1cc(Oc2ccc(NC(=O)Nc3ccc(Cl)c(C(F)(F)F)c3)cc2)ccn1 [sorafenib] | ng/mL | 5150 |

====

test: Pharmacokinetics of sirolimus in blood (LC/MS/MS, non-compartmental); type: in vivo, patients; conditions: human, whole blood, oral, DL 0, sor 200 mg b.i.d., sir 1 mg q.d.; cycle 1 day 16, continuous dosing sor on single-dose sir; geometric mean (95% CI), n=6; read-out: t ½ (converted)

| Compound | half-life / h |
| --- | --- |
| CO[C@H]1C[C@@H]2CC[C@@H](C)[C@@](O)(O2)C(=O)C(=O)N2CCCC[C@H]2C(=O)O[C@H]([C@H](C)C[C@@H]2CC[C@@H](O)[C@H](OC)C2)CC(=O)[C@H](C)/C=C(\C)[C@@H](O)[C@@H](OC)C(=O)[C@H](C)C[C@H](C)/C=C/C=C/C=C/1C [sirolimus] | 56.2 |

====

experiment: Pharmacokinetics of sirolimus in blood (LC/MS/MS, non-compartmental); assay type: in vivo, patients; conditions: human, whole blood, im, AUC(0–12 h), DL IM, sor 400 mg b.i.d., sir 1 mg q.d.; cycle 2 day 15, continuous sor on continuous sir; n=2
Quantity Measured: AUC(0-t) (ng·h/mL)

| Compound | Experimental Result |
| --- | --- |
| CO[C@H]1C[C@@H]2CC[C@@H](C)[C@@](O)(O2)C(=O)C(=O)N2CCCC[C@H]2C(=O)O[C@H]([C@H](C)C[C@@H]2CC[C@@H](O)[C@H](OC)C2)CC(=O)[C@H](C)/C=C(\C)[C@@H](O)[C@@H](OC)C(=O)[C@H](C)C[C@H](C)/C=C/C=C/C=C/1C [sirolimus] | 113 |

====

assay: Pharmacokinetics of sorafenib in plasma (LC/MS/MS, non-compartmental); type: in vivo, patients; details: human, plasma, oral, DL 0, Sor 200 mg b.i.d., sir 1 mg q.d.; cycle 2 day 1, continuous sir on continuous sor; geometric mean (95% CI), n=6
Quantity Measured: Cmax (ng/mL)

| Molecule | Experimental Result |
| --- | --- |
| CNC(=O)c1cc(Oc2ccc(NC(=O)Nc3ccc(Cl)c(C(F)(F)F)c3)cc2)ccn1 [sorafenib] | 7120 |

====

experiment: Pharmacokinetics of sorafenib in plasma (LC/MS/MS, non-compartmental); type: in vivo, patients; details: human, plasma, oral, 200 mg b.i.d., DL 0, Sor 200 mg b.i.d., sir 1 mg q.d.; cycle 1 day 15, continuous dosing sor; geometric mean (95% CI), n=6

| Molecule | Cmax, ng/mL |
| --- | --- |
| CNC(=O)c1cc(Oc2ccc(NC(=O)Nc3ccc(Cl)c(C(F)(F)F)c3)cc2)ccn1 | 7590 |

====

assay: Pharmacokinetics of sorafenib in plasma (LC/MS/MS, non-compartmental); assay type: in vivo, patients; conditions: human, plasma, im, DL IM, Sor 400 mg b.i.d., sir 1 mg q.d.; cycle 2 day 1, continuous sir on continuous sor; geometric mean (95% CI), n=4

| Compound | Cmax / ng/mL |
| --- | --- |
| CNC(=O)c1cc(Oc2ccc(NC(=O)Nc3ccc(Cl)c(C(F)(F)F)c3)cc2)ccn1 [sorafenib] | 6640 |

====

assay: Pharmacokinetics of sirolimus in blood (LC/MS/MS, non-compartmental); assay type: in vivo, patients; settings: human, whole blood, oral, 1 mg, DL 0, sor 200 mg b.i.d., sir 1 mg q.d.; cycle 1 day 1, single-dose sir; geometric mean (95% CI), n=6; read-out: t ½ (converted)
Quantity Measured: half-life (h)

| Compound | Experimental Result |
| --- | --- |
| CO[C@H]1C[C@@H]2CC[C@@H](C)[C@@](O)(O2)C(=O)C(=O)N2CCCC[C@H]2C(=O)O[C@H]([C@H](C)C[C@@H]2CC[C@@H](O)[C@H](OC)C2)CC(=O)[C@H](C)/C=C(\C)[C@@H](O)[C@@H](OC)C(=O)[C@H](C)C[C@H](C)/C=C/C=C/C=C/1C [sirolimus] | 45.5 |

====

assay: Pharmacokinetics of sirolimus in blood (LC/MS/MS, non-compartmental); assay type: in vivo, patients; details: human, whole blood, im, DL IM, sor 400 mg b.i.d., sir 1 mg q.d.; cycle 1 day 16, continuous dosing sor on single-dose sir; geometric mean (95% CI), n=3; read-out: AUC(0–96 h)
Quantity Measured: AUC(0-t)

| Molecule | Quantity Measured | Experimental Result |
| --- | --- | --- |
| CO[C@H]1C[C@@H]2CC[C@@H](C)[C@@](O)(O2)C(=O)C(=O)N2CCCC[C@H]2C(=O)O[C@H]([C@H](C)C[C@@H]2CC[C@@H](O)[C@H](OC)C2)CC(=O)[C@H](C)/C=C(\C)[C@@H](O)[C@@H](OC)C(=O)[C@H](C)C[C@H](C)/C=C/C=C/C=C/1C | AUC(0-t) | 104 ng·h/mL |

====

assay: Pharmacokinetics of sirolimus in blood (LC/MS/MS, non-compartmental); assay type: in vivo, patients; details: human, whole blood, oral, DL 1, Sor 200 mg b.i.d., sir 2 mg q.d.; cycle 2 day 15, continuous sor on continuous sir; n=2

| Molecule | Cmax, ng/mL |
| --- | --- |
| CO[C@H]1C[C@@H]2CC[C@@H](C)[C@@](O)(O2)C(=O)C(=O)N2CCCC[C@H]2C(=O)O[C@H]([C@H](C)C[C@@H]2CC[C@@H](O)[C@H](OC)C2)CC(=O)[C@H](C)/C=C(\C)[C@@H](O)[C@@H](OC)C(=O)[C@H](C)C[C@H](C)/C=C/C=C/C=C/1C | 17.6 |
